Sourced from patent US12187742B2

Measured IC50 accompanies every entry in the list below.
biological target: UniProtKB Q13315; experiment: ATM in Cell Western Assay (pKAP1 in etoposide-treated MCF-7 cells); assay type: cell-based; details: MCF-7 cells, etoposide 100 μM, 1 hr, pKAP1 readout
Sequence (Q13315 whole entry): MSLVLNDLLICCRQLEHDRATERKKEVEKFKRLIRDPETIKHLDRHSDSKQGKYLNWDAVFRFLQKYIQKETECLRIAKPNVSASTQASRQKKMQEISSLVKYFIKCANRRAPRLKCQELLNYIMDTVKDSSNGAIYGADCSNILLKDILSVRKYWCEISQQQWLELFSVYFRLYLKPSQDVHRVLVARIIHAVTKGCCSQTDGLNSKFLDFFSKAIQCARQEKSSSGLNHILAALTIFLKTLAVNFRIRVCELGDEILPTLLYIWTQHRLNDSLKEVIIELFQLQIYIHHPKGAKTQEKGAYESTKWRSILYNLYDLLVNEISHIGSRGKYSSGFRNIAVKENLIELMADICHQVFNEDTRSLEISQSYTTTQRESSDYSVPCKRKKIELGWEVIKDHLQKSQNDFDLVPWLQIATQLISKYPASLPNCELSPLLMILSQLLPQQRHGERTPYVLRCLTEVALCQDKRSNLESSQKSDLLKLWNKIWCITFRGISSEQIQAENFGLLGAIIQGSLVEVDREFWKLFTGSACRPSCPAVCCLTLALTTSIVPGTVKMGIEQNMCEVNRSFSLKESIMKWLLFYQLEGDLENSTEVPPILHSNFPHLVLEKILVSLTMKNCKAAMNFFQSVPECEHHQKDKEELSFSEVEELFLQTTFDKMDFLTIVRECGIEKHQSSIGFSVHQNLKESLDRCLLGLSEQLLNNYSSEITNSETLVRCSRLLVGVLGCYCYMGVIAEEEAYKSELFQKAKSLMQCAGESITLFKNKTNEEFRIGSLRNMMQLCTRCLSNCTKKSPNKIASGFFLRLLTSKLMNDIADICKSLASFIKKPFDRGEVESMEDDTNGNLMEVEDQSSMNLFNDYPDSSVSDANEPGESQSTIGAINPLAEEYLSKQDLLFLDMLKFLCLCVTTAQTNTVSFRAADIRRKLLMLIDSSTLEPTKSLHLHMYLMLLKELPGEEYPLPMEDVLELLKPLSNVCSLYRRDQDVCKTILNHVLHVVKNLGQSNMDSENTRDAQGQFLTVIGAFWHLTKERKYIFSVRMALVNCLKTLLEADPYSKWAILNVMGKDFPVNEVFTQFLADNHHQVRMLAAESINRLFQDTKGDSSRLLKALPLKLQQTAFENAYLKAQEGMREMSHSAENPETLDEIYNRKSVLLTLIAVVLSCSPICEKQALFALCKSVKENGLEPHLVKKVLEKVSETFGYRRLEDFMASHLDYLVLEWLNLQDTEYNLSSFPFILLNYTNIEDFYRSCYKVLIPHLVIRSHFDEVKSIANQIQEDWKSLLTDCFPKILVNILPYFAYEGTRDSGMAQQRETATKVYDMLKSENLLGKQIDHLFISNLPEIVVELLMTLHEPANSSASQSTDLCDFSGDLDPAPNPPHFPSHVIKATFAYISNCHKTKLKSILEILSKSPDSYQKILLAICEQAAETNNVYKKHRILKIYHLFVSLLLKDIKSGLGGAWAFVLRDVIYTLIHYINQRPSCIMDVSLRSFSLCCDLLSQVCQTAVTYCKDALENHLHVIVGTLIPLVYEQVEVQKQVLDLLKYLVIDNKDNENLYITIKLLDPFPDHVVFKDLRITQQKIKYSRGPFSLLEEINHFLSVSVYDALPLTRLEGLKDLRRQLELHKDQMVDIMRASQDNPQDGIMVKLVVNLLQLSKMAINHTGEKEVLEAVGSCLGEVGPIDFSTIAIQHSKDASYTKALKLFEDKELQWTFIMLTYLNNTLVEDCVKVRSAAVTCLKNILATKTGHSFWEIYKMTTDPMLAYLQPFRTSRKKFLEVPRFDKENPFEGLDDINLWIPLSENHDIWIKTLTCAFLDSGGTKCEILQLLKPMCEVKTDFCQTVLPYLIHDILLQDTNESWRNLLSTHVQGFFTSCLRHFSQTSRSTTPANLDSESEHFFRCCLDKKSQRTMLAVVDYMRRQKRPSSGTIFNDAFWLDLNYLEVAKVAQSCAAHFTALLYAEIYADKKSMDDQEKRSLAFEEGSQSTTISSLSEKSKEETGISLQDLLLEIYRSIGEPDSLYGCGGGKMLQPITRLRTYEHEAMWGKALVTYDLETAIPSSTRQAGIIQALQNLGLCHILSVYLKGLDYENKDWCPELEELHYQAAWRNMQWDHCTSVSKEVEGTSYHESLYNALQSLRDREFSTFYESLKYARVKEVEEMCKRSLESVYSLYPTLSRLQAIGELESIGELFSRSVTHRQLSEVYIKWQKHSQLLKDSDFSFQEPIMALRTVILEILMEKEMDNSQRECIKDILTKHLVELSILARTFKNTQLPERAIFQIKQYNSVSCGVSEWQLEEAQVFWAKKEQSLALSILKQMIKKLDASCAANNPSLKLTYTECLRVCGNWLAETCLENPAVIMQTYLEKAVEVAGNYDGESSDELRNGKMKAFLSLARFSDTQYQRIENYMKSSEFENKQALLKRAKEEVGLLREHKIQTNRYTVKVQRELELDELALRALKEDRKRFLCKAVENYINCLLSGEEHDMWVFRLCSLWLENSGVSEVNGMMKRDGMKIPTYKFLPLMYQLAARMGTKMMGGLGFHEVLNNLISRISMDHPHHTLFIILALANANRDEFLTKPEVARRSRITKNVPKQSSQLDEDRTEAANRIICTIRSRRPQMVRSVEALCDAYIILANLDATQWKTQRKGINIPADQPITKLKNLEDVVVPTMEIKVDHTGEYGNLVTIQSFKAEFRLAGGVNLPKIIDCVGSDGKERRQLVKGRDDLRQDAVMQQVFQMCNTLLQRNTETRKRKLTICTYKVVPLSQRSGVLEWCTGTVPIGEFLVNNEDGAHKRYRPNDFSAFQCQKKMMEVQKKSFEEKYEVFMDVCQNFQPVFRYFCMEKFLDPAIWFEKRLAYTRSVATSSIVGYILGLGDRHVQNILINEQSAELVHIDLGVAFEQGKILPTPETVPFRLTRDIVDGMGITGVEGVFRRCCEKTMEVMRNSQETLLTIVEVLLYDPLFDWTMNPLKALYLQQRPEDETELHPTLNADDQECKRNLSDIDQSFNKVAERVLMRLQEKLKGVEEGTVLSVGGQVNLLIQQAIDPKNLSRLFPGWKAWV
Counter-ions that a name gives are not always drawn.
quantity kind: IC50

compound="CN1C(=O)C2(CCC2)c2c1c(N)nc1ccc(-c3cnc(N4CC(N(C)C)C4)c(NS(C)(=O)=O)c3)cc21 [Example 327, hydrochloride]" quantity_kind=IC50 recorded_result="> 100 nM"
compound=CN(C)CCCOc1ncc(-c2ccc3ncc4c(c3c2)C2(CC2)C(=O)N4C)cc1NS(=O)(=O)c1ccc(F)cc1 quantity_kind=IC50 recorded_result="0.5 to 1 nM"
compound=CN(CCCOc1ncc(-c2ccc3ncc4c(c3c2)C2(CCC2)C(=O)N4C)cc1NS(C)(=O)=O)CC(F)(F)F quantity_kind=IC50 recorded_result="1 to 100 nM"
compound="CN1C(=O)C2(CCC2)c2c1cnc1ccc(-c3cnc(OCCCN4CCCCC4)c(NS(=O)(=O)c4cscn4)c3)cc21 [Example 193, hydrochloride]" quantity_kind=IC50 recorded_result="1 to 100 nM"
compound=CC(C)Nc1cc(-c2ccc3ncc4c(c3c2)C2(CC2)C(=O)N4C)cnc1OCCCN(C)C quantity_kind=IC50 recorded_result="> 100 nM"
compound=CN(C)CCCOc1ncc(-c2ccc3ncc4c(c3c2)C2(CC2)C(=O)N4C)cc1NS(=O)(=O)Cc1ccccc1 quantity_kind=IC50 recorded_result="1 to 100 nM"
compound="CN1C(=O)C2(CCC2)c2c1cnc1cc(F)c(-c3cnc(N4CC(N(C)C)C4)c(NS(C)(=O)=O)c3)cc21 [Example 317, hydrochloride]" quantity_kind=IC50 recorded_result="1 to 100 nM"
compound=CN1C(=O)C2(CC2)c2c1cnc1ccc(-c3cccc4[nH]ncc34)cc21 quantity_kind=IC50 recorded_result="> 100 nM"
compound=CN(C)CCCOc1ccc(-c2ccc3ncc4c(c3c2)C2(CC2)C(=O)N4C)cc1NS(=O)(=O)c1cccc(Cl)c1 quantity_kind=IC50 recorded_result="1 to 100 nM"
compound=CN(C)CCCOc1ncc(-c2ccc3ncc4c(c3c2)C2(CCC2)C(=O)N4C)cc1NS(=O)(=O)CCN(C)C quantity_kind=IC50 recorded_result="0.5 to 1 nM"
compound=CN1C(=O)C2(CCC2)c2c1cnc1ccc(-c3cnc(OCCCN4CCCCC4)c(NS(=O)(=O)N4CCNCC4)c3)cc21 quantity_kind=IC50 recorded_result="0.5 to 1 nM"
compound=Cc1cc(-c2ccc3ncc4c(c3c2)C2(CC2)C(=O)N4C)cnc1OCCCN(C)C quantity_kind=IC50 recorded_result="1 to 100 nM"
compound=COc1ncc(-c2ccc3ncc(Nc4ccn(C)n4)c(=O)n3c2)cc1NS(=O)(=O)c1ccccc1 quantity_kind=IC50 recorded_result="> 100 nM"
compound=CN(C)CCCOc1ncc(-c2ccc3ncc4c(c3c2)C2(CC2)C(=O)N4C)cc1NS(=O)(=O)C1CC1 quantity_kind=IC50 recorded_result="1 to 100 nM"
